- Test Details: endothelial E-selectin expression blockers – imaging, HUVEC, immunofluorescence, MLSMR starter and 10KST1 sets, primary screen (AID 487);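 note: signal is fraction of cell area covered by stained E-selectin grains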
- Run Parameters: HUVEC TNFalpha-induced E-selectin immunofluorescence imaging, at 2 µM; hits give high values
Observable: inhibition (%)
State the answer as a number, implicitly in %.

The following compounds have reported results that may help.
| Compound | Readout Unit | inhibition |
| --- | --- | --- |
| Cc1cc(C)c(-c2cc(C(=O)Nc3c(C)n(C)n(-c4ccccc4)c3=O)[nH]n2)c(O)c1 | % | -51.7 |
| CCCc1nc2ccccc2c2nc(N)nn12 | % | 21.4 |
| COc1ccc(CC(=O)OCc2nnc(C3COc4ccccc4O3)o2)cc1OC (stereo unspecified) | % | -48 |
| CCN1CCN(CCCNC(=O)c2cn(CCOC)c(=O)c3c2c2ccccc2n3C)CC1 | % | -2.9 |
| C=CCOc1ccc(/C(O)=C2\C(=O)C(=O)N(CCOC)C2c2cccnc2)cc1 (stereo unspecified) | % | 4 |
| Cn1c(NCc2cccc(Br)c2)nc2ccccc21 | % | -6.9 |

What does the record list as inhibition for O=C(Oc1ccccc1)c1c(Cl)cccc1P(=O)(O)O ?
-22.4

What value of measured inhibition is listed for O=C1CN=C(Nc2cccc(C(F)(F)F)c2)N1C1CCCC1 ?
-375

Fill blank: measured inhibition of the compound O=c1oc(-c2ccco2)nc2ccccc12 is ____.
-332

Need inhibition, item COc1ccccc1-c1c(C)nn2c(C)c(C(C)=O)cnc12
96.7

Param item = COc1ccc(OC)c(C2=NOC(C(=O)Nc3cccnc3)C2)c1 (stereo unspecified) ; retrieve measured inhibition.
-31.9
